test-summary: Stability tests of compound of formula I and its monohydrochloride, phosphate and maleate (Example 4)
Type: physicochemical
condition-details: Initial
Structures can show the parent of a compound that is named as a salt.
Measured Purity % accompanies every entry in the list below.
Field: numeric (%). Do not append units.

{"molecule": "COc1cc(C)c2[nH]ccc2c1CN1CCC(OCC2CC2)CC1c1ccc(C(=O)O)cc1.O=C(O)C=CC(=O)O (stereo not shown) [Compound of formula I Maleate]", "obs-value": 99.80}
{"molecule": "COc1cc(C)c2[nH]ccc2c1CN1CC[C@H](OCC2CC2)C[C@H]1c1ccc(C(=O)O)cc1 [Compound of formula I Monohydrochloride]", "obs-value": 99.59}
{"molecule": "COc1cc(C)c2[nH]ccc2c1CN1CCC(OCC2CC2)CC1c1ccc(C(=O)O)cc1.O=P(O)(O)O (stereo not shown) [Compound of formula I Phosphate]", "obs-value": 99.75}

Given COc1cc(C)c2[nH]ccc2c1CN1CC[C@H](OCC2CC2)C[C@H]1c1ccc(C(=O)O)cc1 [Compound of formula I] , state its recorded Purity %.
99.28
